Tested on: isolated guinea pig right atria
Test: Chronotropic effect on isolated guinea pig right atria (atrial rate)
Set-up: species or system guinea pig (male Hartley)
Settings: Cavia porcellus; % of rate produced by 1 μM forskolin; tested up to 1000 nM; r(log-lin) = 0.9453-0.9968; read-out: EC50 Atrial Rate, determined by linear regression of percent maximum response
pEC50: −log10 of the molar value.
PARAMETER: pEC50

Look over these answered cases.
OCc1cc([C@@H](O)CNCCCCCCOCCCCc2ccccc2)ccc1O [(R)-Salmeterol] : 5.76
CC(C)(C)NCC(O)c1ccc(O)c(CO)c1 (racemic) [(RS)-Albuterol] : 6.57

a: OCc1cc(C(O)CNCCCCCCOCCCCc2ccccc2)ccc1O (racemic) [(RS)-Salmeterol]
b: CC(C)(C)NC[C@H](O)c1ccc(O)c(CO)c1 [(R)-Albuterol]
Exercise: // max by pEC50 over [ a , b ] When you have decided, please share the label of that item.
Solution: b

* * *

Target: human β2 AR (Homo sapiens, UniProt P07550)
Sequence (P07550 whole entry): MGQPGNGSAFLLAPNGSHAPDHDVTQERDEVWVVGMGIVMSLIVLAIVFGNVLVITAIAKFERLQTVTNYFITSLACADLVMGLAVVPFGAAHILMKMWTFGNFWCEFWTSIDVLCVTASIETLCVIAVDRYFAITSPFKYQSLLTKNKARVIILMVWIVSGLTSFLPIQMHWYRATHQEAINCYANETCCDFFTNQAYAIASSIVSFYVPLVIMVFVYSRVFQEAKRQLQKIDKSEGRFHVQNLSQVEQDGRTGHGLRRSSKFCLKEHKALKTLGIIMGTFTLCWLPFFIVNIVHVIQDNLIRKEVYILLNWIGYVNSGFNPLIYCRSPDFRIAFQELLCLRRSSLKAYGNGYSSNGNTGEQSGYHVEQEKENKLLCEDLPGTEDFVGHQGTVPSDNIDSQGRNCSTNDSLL
PARAMETER: pKd
Quick note: pKd values are minus log10 of concentrations in mol/L.

Exercise: So what does the record say about pKd for CC(C)NC[C@H](O)COc1cccc2[nH]cc(I)c12 [[^125 l] iodopindolol] ?
Solution: 10.70
